Catalogue of GI50 values
Tested on: 786-0
Assay: NCI tumour cell line growth inhibition, 48 h
Active and inactive are the calls of the source. Cut-off read from the data, not from the text of the source: active = GI50 up to about 1.1 µM and inactive = higher.

compound: CC[C@@]1(O)CC(OC2CC(N3CCOCC3)C(O)C(C)O2)c2c(O)c3c(c(O)c2[C@H]1O)C(=O)c1cccc(O)c1C3=O (stereo partly specified)
GI50: 0.0407 µM (active)
--
compound: C/C(CC(O)(C(F)(F)F)C(F)(F)F)=N\NC(N)=O
GI50: > 10 µM (inactive)
--
compound: O=C(NN=C1NCCCCN1)Nc1ccc(Cl)cc1
GI50: > 100 µM (inactive)
--
compound: O=C(CCN1CCN2c3ccccc3CCC2C1)c1ccc(F)cc1 (stereo unspecified)
GI50: 18.9 µM (inactive)
--
compound: O=C(O)CSc1nc2ccccc2[nH]1
GI50: > 100 µM (inactive)
--
compound: C/C=C/c1c(O)c(=O)c2c(OC)cc(OC)c3c4c(OC)cc(OC)c5c(=O)c(O)c(/C=C/C)c(c1c23)c54
GI50: 14.9 µM (inactive)
--
compound: Cc1ccc(/C(=C\C(=O)C(=O)NC23CC4CC(CC(C4)C2)C3)Sc2ccccc2)cc1
GI50: > 10 µM (inactive)
--
compound: CCCCCCCCCC(=O)NC(Cc1ccc(O)cc1)C(=O)NCCCNCCCCNCCCNC(=O)[C@@H](N)CCCN=C(N)N (stereo partly specified)
GI50: 61.7 µM (inactive)
--
compound: C=COC(=O)N1C2CCCC(Cl)(C(C)=O)C1CC2 (stereo unspecified)
GI50: > 100 µM (inactive)
--
compound: COc1cccc2c(NNc3ccc(Cl)cc3)c3ccc([N+](=O)[O-])cc3nc12
GI50: 8.97 µM (inactive)
--
compound: CCSc1nnc(CSc2nc(-c3ccccc3)c(-c3ccccc3)[nH]2)n1-c1ccccc1
GI50: 19.8 µM (inactive)
--
compound: Clc1ccccc1C(Nc1ncccn1)Nc1ncccn1
GI50: > 100 µM (inactive)
--
compound: Cc1ccc(S(=O)(=O)N/N=C2\C(=O)Nc3cc(O)c(C(=O)O)cc32)cc1
GI50: > 100 µM (inactive)
--
compound: Cc1sc2ccccc2[n+]1CCC(=O)O
GI50: > 100 µM (inactive)
--
compound: COC1=C(OC)C(=O)C(Cc2c(-c3ccccc3)nc3sc(Cl)cn23)=C(C)C1=O
GI50: 19.6 µM (inactive)
--
compound: O=c1c2c3c(sc2nc2n1N=C(c1ccc([N+](=O)[O-])cc1)CS2)CCCC3
GI50: > 100 µM (inactive)
--
compound: CCOC(=O)NNC(=O)NCCNC(=O)NNC(=O)OCC
GI50: > 100 µM (inactive)
--
compound: CC(=O)/C(=C\c1ccc(Cl)c(Cl)c1)C(=O)C(C)CN(C)C (stereo unspecified)
GI50: 2.39 µM (inactive)
--
compound: CCC(=O)NCC1(c2c[nH]c3ccccc23)SCCS1
GI50: > 100 µM (inactive)
--
compound: COc1cc2c(cc1OC)-c1cc(OC)c(OC)cc1[C@H]1CN3CCC[C@@]3(O)C=C21
GI50: < 0.0001 µM (active)
--
compound: Cn1nc2ccc3nccc(N(CCO)CCO)c3c2n1
GI50: > 100 µM (inactive)
